Assign Kd to each entry below.
- testTarget: MS2 coat protein, dlFG mutant (Escherichia phage MS2, UniProt P03612, del68-81insG)
- runDescription: 4 mM Mg2+; no ligand; RNA-MaP array; 100 mM Tris-HCl pH 7.5, 80 mM KCl, 4 mM MgCl2, 0.1 mg/mL BSA, 1 mM DTT, 0.01 mg/mL yeast tRNA, 0.01% Tween-20; protein 1.5 nM to 3 uM; 37 C (Table S3)
- reportedConditions: chain copies: 2; label: tethered by stalled RNA polymerase
Answers are plain numbers, in nM.

Ask: Name the recorded Kd for Eterna 15969 (Sensor v3, turn-off variant 2) (ssRNA) RNA: AAGUACCGUCACGAUAGUGAUGGUACAACAAGCAAAUGUACAUGAGGAUCACCCAUGUCCUCUUUUGCUCGUCUUGU .
Result: 166

// batch mode: one Kd value per listed entry
1. Eterna 6121278 (Same State NG 1) (ssRNA) RNA: UCACUCAAGUUAGGAUAUGGAUCGGAAAACGAUCCAGAAGGAACAUGAAAACAUGAGCAUCAGCCAUGUUCCAGAAACGAGUGA
2. Eterna 6398795 (Exclusion NG 1) (ssRNA) RNA: CCUGCACCUCAAGGAUAUCCAGUCGAAACGACUGGAGAAGGUGAGGAUCACCCAUCUAGCCUGACGAAAGUCAGGCAUGCAGGA
3. Eterna 5503477 (Same State 1) (ssRNA) RNA: AAGAAACAUGAGGAUCACCCAUGUAAGAUAAACACAGGAUAUGCGAAUAAAAUAAAUAAAGCAGAAGGGUGAAGAA
4. Eterna 6429242 (Inverted Exclusion NG 1) (ssRNA) RNA: UCCGCAUCUGAGAAGGGAUCUCCGCGGAAGGGAUCAGGAUAUCGGACAUGAGGAUCACCCAUGUGCCGUUAAAGGACACCUGGU

Result:
77.6
368
51.2
6.05

For each of the items listed, what is its Kd?
1. Eterna 6150223 (Exclusion NG 3) (ssRNA) RNA: AUUAUGACCGAGUUAUGCUUCAAAACAUGAGGAUCACCCAUGUAGGAUAUCAGCACGAUAAGUGCUGAGAAGGACAUCUCGGUC
2. Eterna 6454516 (Inverted Same State NG 3) (ssRNA) RNA: AAACACGGACAUGAGGAUCACCCAUGUGGCGAAAGCCUUGGAAGAAGGCCGAUUGCAAAGCAAUCGGAGGAUAUUCAUACCGUG
3. Eterna 7673392 (Same State - Arginine B) (ssRNA) RNA: UGUAUGGACUGAAGGAGCGGGUUGAUAACCUGAGGAUCAUCCAGGUAAAAGGCGAAAGCCACCCAGGUAGGUCGCAGUCCAUACU
4. Eterna 7710185 (Exclusion - Tryptophan A) (ssRNA) RNA: AGCUCGCAUCCUCUAGCGUCAAAGACGCCUCGAGGACCGGUACGGCCGCCACUCGAGAUGAGGAUCACCCAUCUCAAAGCGAGCA

Result:
1. 14.7
2. 13.8
3. 279
4. 190
